Tested on: Jurkat FADD-/- TNF-alpha necroptosis, CellTiter-Glo ATP, 24 h
Experiment: inhibitors of TNF-alpha triggered necroptosis, potency, dose response, cell-based, Jurkat FADD-/-, duplicate IC50 (AID 463178)
Activity calls are given as the source filed them.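 Rule for the calls: active = IC50 below a set limit in both duplicate runs and mean IC50 below a set limit; inconclusive = IC50 above a set limit in only one run; inactive = IC50 above a set limit in both runs and mean.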
Thanks in advance; please answer with one of these: True = active, False = inactive

Example results:
compound="CC(Nc1nc(-c2ccc3c(c2)NC(=O)CO3)cs1)c1ccccc1 (stereo unspecified)" classification=False
compound=CCn1c([N+](=O)[O-])nc2c1c(=O)[nH]c(=O)n2C classification=False
compound=CC(=O)N(c1ccccc1)c1nnc(-c2cnc(C)cn2)s1 classification=True
compound="CC(NC(=O)c1cc(Br)ccc1Cl)c1ccccc1 (stereo unspecified)" classification=False
compound=N#CCSc1nc2sc3c(c2c(=O)n1C1CCCCC1)CCCC3 classification=False

Next:
Query :: // outcome(item) with item = O=C(C1=NNCC1c1ccc(Cl)cc1)C1CO1 (stereo unspecified)
Result :: True
